This collection of values is drawn from the supplement of paper PMC4206461.

system: Pseudomonas aeruginosa PA14 dppA1-A5 penta mutant + pBBR5.DppA1 (PA14_58350); experiment: respiration area under curve with compound as sole nitrogen source, 24 h (OmniLog AUC (arbitrary units)); higher = more respiration / better utilisation as nitrogen source, active = 2000 or more
Measurement name: respiration area under curve
Just the number.

Task item: Which respiration area under curve reading was recorded for the molecule C[C@@H](NC(=O)CN)C(=O)O (plate: PM8) ?
Reply: 3490

Task item: Could you do the same for N[C@@H](Cc1ccccc1)C(=O)N[C@@H](Cc1ccccc1)C(=O)O (plate: PM7) , please?
Reply: 5690

Task item: Could you do the same for NC(=O)C[C@H](N)C(=O)N[C@@H](CCC(=O)O)C(=O)O (plate: PM6) , please?
Reply: 4770

Task item: Could you do the same for NCC(=O)N[C@@H](Cc1c[nH]c2ccccc12)C(=O)O (plate: PM6) , please?
Reply: 49.2

Task item: Could you do the same for N[C@@H](CC(=O)O)C(=O)N[C@@H](CCC(=O)O)C(=O)O (plate: PM6) , please?
Reply: 437

Task item: Could you do the same for N[C@@H](CO)C(=O)N[C@@H](CO)C(=O)O (plate: PM7) , please?
Reply: 6490

Task item: Could you do the same for N[C@@H](Cc1ccc(O)cc1)C(=O)N[C@@H](Cc1ccccc1)C(=O)O (plate: PM7) , please?
Reply: 6470

Task item: Could you do the same for N[C@@H](Cc1ccccc1)C(=O)N[C@@H](Cc1ccc(O)cc1)C(=O)O (plate: PM8) , please?
Reply: 2050

Task item: Could you do the same for N[C@@H](Cc1ccccc1)C(=O)N[C@@H](CO)C(=O)O (plate: PM7) , please?
Reply: 6540

Task item: Could you do the same for N[C@@H](Cc1ccc(O)cc1)C(=O)N[C@@H](Cc1ccc(O)cc1)C(=O)O (plate: PM7) , please?
Reply: 6170

Task item: Could you do the same for N[C@@H](Cc1ccccc1)C(=O)N[C@@H](CC(=O)O)C(=O)O (plate: PM8) , please?
Reply: 2600

Task item: Could you do the same for C[C@H](NC(=O)[C@@H](N)CCCN=C(N)N)C(=O)O (plate: PM6) , please?
Reply: 8610

Task item: Could you do the same for CC(C)[C@H](N)C(=O)N[C@@H](Cc1ccc(O)cc1)C(=O)O (plate: PM7) , please?
Reply: 7120

Task item: Could you do the same for N[C@@H](Cc1ccccc1)C(=O)N[C@@H](CCC(=O)O)C(=O)O (plate: PM8) , please?
Reply: 2880

Task item: Could you do the same for CC(C)[C@H](N)C(=O)N[C@@H](CCC(=O)O)C(=O)O (plate: PM8) , please?
Reply: 2880

Task item: Could you do the same for CC(C)C[C@H](N)C(=O)NCC(=O)NCC(=O)O (plate: PM8) , please?
Reply: 8090

Task item: Could you do the same for CSCC[C@H](N)C(=O)N[C@@H](Cc1ccc(O)cc1)C(=O)O (plate: PM8) , please?
Reply: 780

Task item: Could you do the same for CC[C@H](C)[C@H](N)C(=O)NCC(=O)O (plate: PM6) , please?
Reply: 2560

Task item: Could you do the same for O=C(O)[C@H](CO)NC(=O)[C@@H]1CCCN1 (plate: PM8) , please?
Reply: 5440

Task item: Could you do the same for CC(C)[C@H](NC(=O)[C@H](C)N)C(=O)O (plate: PM8) , please?
Reply: 7610

Task item: Could you do the same for C[C@H](N)C(=O)N[C@@H](Cc1ccccc1)C(=O)O (plate: PM6) , please?
Reply: 6990

Task item: Could you do the same for O=C(O)[C@H](Cc1c[nH]c2ccccc12)NC(=O)[C@@H]1CCCN1 (plate: PM8) , please?
Reply: 1320

Task item: Could you do the same for N[C@@H](CC(=O)O)C(=O)NCC(=O)O (plate: PM8) , please?
Reply: 2620

Task item: Could you do the same for N[C@@H](Cc1ccccc1)C(=O)NCC(=O)O (plate: PM7) , please?
Reply: 6420

Task item: Could you do the same for CC(C)CC(N)C(=O)NC(Cc1c[nH]c2ccccc12)C(=O)O (centres undefined) (plate: PM7) , please?
Reply: 8370

Task item: Could you do the same for NCC(=O)NCC(=O)O (plate: PM6) , please?
Reply: 2050

Task item: Could you do the same for NC(N)=NCCC[C@H](N)C(=O)N[C@@H](CO)C(=O)O (plate: PM6) , please?
Reply: 7830

Task item: Could you do the same for NC(=O)CC[C@H](NC(=O)[C@@H](N)Cc1ccc(O)cc1)C(=O)O (plate: PM7) , please?
Reply: 12100

Task item: Could you do the same for CSCC[C@H](N)C(=O)N1CCC[C@H]1C(=O)O (plate: PM7) , please?
Reply: 8590

Task item: Could you do the same for CC(C)[C@H](N)C(=O)N[C@@H](CC(N)=O)C(=O)O (plate: PM7) , please?
Reply: 10400

Task item: Could you do the same for CC(C)[C@H](N)C(=O)N[C@@H](CCCN=C(N)N)C(=O)O (plate: PM7) , please?
Reply: 12100

Task item: Could you do the same for NC(N)=NCCC[C@H](N)C(=O)N[C@@H](CC(=O)O)C(=O)O (plate: PM6) , please?
Reply: 7970

Task item: Could you do the same for C[C@@H](O)[C@H](N)C(=O)N[C@@H](CCC(N)=O)C(=O)O (plate: PM8) , please?
Reply: 10400

Task item: Could you do the same for CSCCC(NC(=O)C(N)CC(C)C)C(=O)O (centres undefined) (plate: PM6) , please?
Reply: 1220

Task item: Could you do the same for CC(C)C[C@H](NC(=O)[C@@H](N)Cc1ccc(O)cc1)C(=O)O (plate: PM7) , please?
Reply: 6720

Task item: Could you do the same for NC(N)=NCCC[C@H](N)C(=O)N[C@@H](Cc1ccc(O)cc1)C(=O)O (plate: PM6) , please?
Reply: 8490

Task item: Could you do the same for CSCC[C@H](NC(=O)[C@@H](N)[C@@H](C)O)C(=O)O (plate: PM7) , please?
Reply: 2920

Task item: Could you do the same for CC[C@H](C)[C@H](N)C(=O)N[C@@H](CO)C(=O)O (plate: PM6) , please?
Reply: 3970

Task item: Could you do the same for C[C@@H](O)[C@H](N)C(=O)N[C@@H](Cc1ccccc1)C(=O)O (plate: PM8) , please?
Reply: 6440
